system.under.test: T1, U2AF1 (human, UniProt Q01081 1-240)
T1 sequence: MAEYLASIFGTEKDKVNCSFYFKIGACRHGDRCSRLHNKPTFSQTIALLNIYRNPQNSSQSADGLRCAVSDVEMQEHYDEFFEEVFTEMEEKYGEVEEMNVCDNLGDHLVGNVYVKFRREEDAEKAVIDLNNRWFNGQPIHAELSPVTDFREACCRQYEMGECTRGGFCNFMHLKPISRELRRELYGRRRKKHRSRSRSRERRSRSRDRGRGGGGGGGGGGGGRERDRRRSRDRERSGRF
assay.info: fluorescence anisotropy; 100 mM K+; Anisotropy: 10 nM probe, 10 mM Tris-HCl pH 7.5, 1 mM EDTA, 100 mM KCl, 0.1 mM DTT, 10 ug/mL BSA, 30 min on ice; EMSA same but Tris pH 8.0, 6% native PAGE in 1x
experimental.context: protein: recombinant; tags: His6 (pET30a); label: 5' TAMRA
Answer each item with its documented Kd.
Numbers only, in nM.

Sample records with Kd:
AAAGGGTTAGTGTTAGTGTTAGGGAA (ssDNA) [hTel_M4]; 60
TGAGGGTGAGGAGTGTGGGGAAGG (ssDNA) [cMYC_M4]; 22
AGGGAGGGCTCTGTGAGGAGGG (ssDNA) [cKIT_M4]; 19

Query block: Fill blank: measured Kd of the binder GGGTTAGTGTTAGTGTTAGGGT (ssDNA) [2KF8_M4] is ____.
Result block: 10
